Biological target: STAT6 (Homo sapiens, UniProt P42226)
Construct: stably transfected HaCaT keratinocyte cell line, which expresses NanoLuc luciferase reporter gene under the transcriptional control of the STAT6 responsive promoter; endogenous in cells; host or cells: HaCaT keratinocyte reporter cell line (stably transfected with a NanoLuc reporter)
Experiment: STAT6 Reporter Luciferase Assay (IL-13 stimulated HaCaT keratinocyte NanoLuc reporter cells)
Format: cell-based
Conditions: IL-13 stimulated HaCaT STAT6 NanoLuc reporter cells; read-out: Reporter EC50
pEC50: −log10 of the molar value.

COMPOUND | QUALIFIER | pEC50
CC(C)n1nc(C(=O)NCc2ccc(NC(=O)N(C)C)cc2)c2c1[C@@H](C)CN(c1ccc(N3CCCC3=O)cn1)C2 | = | 9.70
Cc1ccnc(-c2ccc(CNC(=O)c3nn(C(C)C)c4c3CN(c3ccc(C(=O)N(C)C)cc3)C[C@@H]4C)cc2)n1 | < | 5.00
Cc1cc2n(n1)CCN(C(=O)c1ccc(N3CCc4c(c(C(=O)NCc5ccc(NC(=O)N(C)C)cc5)nn4C(C)C)C3)nc1)C2 | = | 7.68
CC(C)n1nc(C(=O)NCc2ccc(NC(=O)N3CCC4(CCNCC4)CC3)cc2)c2c1[C@@H](C)CN(c1ccc(C(=O)N(C)C)cc1)C2 | = | 8.00
C[C@@H]1CN(c2ccc(C(=O)N(C)C)cn2)Cc2c(C(=O)NCc3ccc(NC(=O)N(C)C)cc3)nn(C3CCOCC3)c21 (single isomer, unassigned) | = | 7.24
COC[C@H]1CN(C(=O)Nc2ccc(CNC(=O)c3nn(C(C)C)c4c3CN(c3ccc(C(=O)N(C)C)cc3)C[C@@H]4C)cc2F)CCN1 | = | 9.00
CCC(C)n1nc(C(=O)NCc2ccc(NC(=O)N(C)C)cc2)c2c1[C@@H](C)CN(c1ccc(C(=O)N(C)C)cn1)C2 (single isomer, unassigned) [Example 318] | = | 9.40
COCCC1(N)CCN(C(=O)Nc2ccc(CNC(=O)c3nn(C(C)C)c4c3CN(c3ccc(C(=O)N(C)C)cc3)C[C@@H]4C)cc2)C1 (single isomer, unassigned) [Example 670] | = | 9.00
CNC1(C)CCN(C(=O)Nc2ccc(CNC(=O)c3nn(C(C)C)c4c3CN(c3ccc(C(=O)N(C)C)cc3)C[C@@H]4C)cc2)C1 (single isomer, unassigned) [Example 713] | = | 8.52
Cc1nc2n(n1)CCN(C(=O)c1ccc(N3CCc4c(c(C(=O)NCc5ccc(NC(=O)N(C)C)cc5)nn4C(C)C)C3)nc1)C2 | = | 7.09
CC(C)n1nc(C(=O)NCc2ccc(NC(=O)N(C)C)cc2)c2c1C(C(F)(F)F)CN(c1ccc(C(=O)N(C)C)cn1)C2 (single isomer, unassigned) [Example 548] | = | 7.82
CC(C)n1nc(C(=O)NCc2ccc(NC(=O)N3CCN(C)CC3)cc2)c2c1[C@@H](C)CN(c1ccc(-n3ccnn3)cc1)C2 | = | 9.70

---

Target: STAT6 (Homo sapiens, UniProt P42226)
Construct: stably transfected HaCaT keratinocyte cell line, which expresses NanoLuc luciferase reporter gene under the transcriptional control of the STAT6 responsive promoter; endogenous in cells; host or cells: HaCaT keratinocyte reporter cell line (stably transfected with a NanoLuc reporter)
Sequence (P42226 1-847): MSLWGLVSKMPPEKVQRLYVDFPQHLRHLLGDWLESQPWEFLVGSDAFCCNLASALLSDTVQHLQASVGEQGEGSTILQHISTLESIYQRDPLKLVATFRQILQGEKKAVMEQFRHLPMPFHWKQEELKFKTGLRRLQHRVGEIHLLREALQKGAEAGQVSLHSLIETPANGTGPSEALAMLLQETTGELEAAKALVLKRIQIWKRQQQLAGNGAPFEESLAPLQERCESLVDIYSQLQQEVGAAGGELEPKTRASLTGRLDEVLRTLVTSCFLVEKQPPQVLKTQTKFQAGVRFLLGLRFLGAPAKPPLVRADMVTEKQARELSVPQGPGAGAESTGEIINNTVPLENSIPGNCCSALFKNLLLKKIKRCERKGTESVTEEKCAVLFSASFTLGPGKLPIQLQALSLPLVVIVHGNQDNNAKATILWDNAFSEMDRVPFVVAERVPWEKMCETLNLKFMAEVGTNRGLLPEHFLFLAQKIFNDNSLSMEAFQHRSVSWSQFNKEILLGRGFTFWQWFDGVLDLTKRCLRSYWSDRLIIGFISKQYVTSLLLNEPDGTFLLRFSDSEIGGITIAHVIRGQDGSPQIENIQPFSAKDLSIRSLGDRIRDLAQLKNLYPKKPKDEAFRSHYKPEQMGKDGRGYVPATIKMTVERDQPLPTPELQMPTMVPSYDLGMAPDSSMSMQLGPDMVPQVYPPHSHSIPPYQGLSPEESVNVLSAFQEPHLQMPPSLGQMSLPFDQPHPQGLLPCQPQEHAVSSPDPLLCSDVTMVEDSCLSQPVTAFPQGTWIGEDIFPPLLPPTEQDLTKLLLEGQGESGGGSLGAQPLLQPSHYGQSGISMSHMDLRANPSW
Test: STAT6 Reporter Luciferase Assay (IL-13 stimulated HaCaT keratinocyte NanoLuc reporter cells)
Type: cell-based
Details: IL-13 stimulated HaCaT STAT6 NanoLuc reporter cells; read-out: Reporter EC50
ASSAY METRIC: log10 of EC50 (log10 of the value in nM)

MOLECULE | log10 of EC50
CCC(C)n1nc(C(=O)NCc2ccc(NC(=O)N(C)C)cc2)c2c1CCN(c1ccc(C(=O)N(C)C)cn1)C2 (single isomer, unassigned) [Example 234] | 1.30
CC(C)n1nc(C(=O)NCc2ccc(NC(=O)N3CCN(C)CC3)cc2)c2c1[C@@H](C)CN(c1ccc3c(c1)OCCN(C)C3=O)C2 [Example 657] | 0.30
CC(C)n1nc(C(=O)NCc2ccc(-c3ncc[nH]3)cc2)c2c1[C@@H](C)CN(c1ncc(N3CCCC3=O)cn1)C2 [Example 487] | 0.30
CC(C)n1nc(C(=O)NCc2ccc(NC(=O)N(C)C)cc2)c2c1CCN(c1ccc(CC(=O)N(C)C)cn1)C2 [Example 286] | 2.82
C[C@H]1c2c(C(=O)NCc3ccc(NC(=O)N(C)C)cc3)nn(C)c2CCN1c1ccc(C(=O)N(C)C)cn1 (single isomer, unassigned) [Example 444] | 2.20
CNC(=O)Nc1ccc(CNC(=O)c2nn(C(C)C)c3c2CN(c2ccc(C(N)=O)cn2)CC3)cc1 [Example 453] | 3.33
CC(C)n1nc(C(=O)NCc2ccc(NC(=O)N(C)C)cc2)c2c1[C@@H](C)CN(c1ccc(C(=O)N(C)CC3CCN(C)CC3)cc1)C2 [Example 635] | 1.15
CC(C)n1nc(C(=O)NCc2ccc(NC(=O)N(C)C)cc2)c2c1CCN(c1ccc(C(=O)N3C[C@H]4COC[C@H]4C3)cn1)C2 [Example 289] | 2.49
CC(C)n1nc(C(=O)NCc2ccc(NC(=O)N(C)C)cc2)c2c1CCN(c1ccc(C(=O)N3CC[C@@H](C#N)C3)cn1)C2 [Example 297] | 2.35
CC(C)n1nc(C(=O)NCc2ccc(NC(=O)N(C)C)cc2)c2c1CCN(c1ccc(C(=O)N3CCn4nccc4C3)cn1)C2 [Example 425] | 1.53
CC(C)n1nc(C(=O)NCc2ccc(-c3ncc[nH]3)cc2)c2c1[C@@H](C)CN(c1ncc(C(=O)N(C)C)cn1)C2 (single isomer, unassigned) [Example 335] | 0.00
Cc1ccc(-c2ccc(CNC(=O)c3nn(C(C)C)c4c3CN(c3ccc(C(=O)N(C)C)cc3)C[C@@H]4C)cc2)nn1 [Example 727] | 1.04
Cc1cc2c(cn1)CN(C(=O)c1ccc(N3CCc4c(c(C(=O)NCc5ccc(NC(=O)N(C)C)cc5)nn4C(C)C)C3)nc1)C2 [Example 440] | 1.20

---

Target: STAT6 (Homo sapiens, UniProt P42226)
Construct: stably transfected HaCaT keratinocyte cell line, which expresses NanoLuc luciferase reporter gene under the transcriptional control of the STAT6 responsive promoter; endogenous in cells; host or cells: HaCaT keratinocyte reporter cell line (stably transfected with a NanoLuc reporter)
Experiment: STAT6 Reporter Luciferase Assay (IL-13 stimulated HaCaT keratinocyte NanoLuc reporter cells)
Type: cell-based
Details: IL-13 stimulated HaCaT STAT6 NanoLuc reporter cells; read-out: Reporter EC50
We'd kindly ask you to apply these EC50 classes: bucket A = under 4 nM, bucket B = from 4 nM up to 50 nM, bucket C = 50 nM and over

COMPOUND | CLASS
CC(C)n1nc(C(=O)NCc2ccc(NC(=O)N3CCC4(CC3)CNC4)cc2)c2c1[C@@H](C)CN(c1ccc(C(=O)N(C)C)cc1)C2 | bucket B
CCn1nc(C(=O)NCc2ccc(NC(=O)N(C)C)cc2)c2c1CC(C(F)(F)F)N(c1ccc(C(=O)N(C)C)cn1)C2 (single isomer, unassigned) [Example 251] | bucket B
CC(C)n1nc(C(=O)NCc2ccc(C(N)=O)cc2)c2c1[C@@H](C)CN(c1ncc(-c3nccn3C)cn1)C2 | bucket C
CC(C)n1nc(C(=O)NCc2ccc(NC(=O)N(C)C)cc2)c2c1CCN(c1ccc(C(=O)N3CC4CC(C3)C4O)cn1)C2 (stereo not drawn) | bucket C
CN(C)C(=O)Nc1ccc(CNC(=O)c2nn(C3CCOC3)c3c2CN(c2ccc(C(=O)N(C)C)cn2)CC3)cc1 (single isomer, unassigned) [Example 191] | bucket B
CN(C)C(=O)Nc1ccc(CNC(=O)c2nn(CC3CC(F)(F)C3)c3c2CN(c2ccc(C(=O)N(C)C)cn2)CC3)cc1 | bucket B
CC(C)n1nc(C(=O)NCc2ccc(NC(=O)N(C)C)cc2)c2c1CCN(c1ccc(C(=O)N3CCn4c(cccc4=O)C3)cn1)C2 | bucket C
COc1nc(N2CCc3c(c(C(=O)NCc4ccc(NC(=O)N(C)C)cc4)nn3C(C)C)C2)ccc1[C@@]1(C)CCCNC1=O | bucket C
[2H]C([2H])([2H])N(C(=O)Nc1ccc(CNC(=O)c2nn(C(C)C)c3c2CN(c2ccc(C(=O)N(C)C)cc2)C[C@@H]3C)cc1)C([2H])([2H])[2H] | bucket A
CC(C)n1nc(C(=O)NCc2ccc(NC(=O)N(C)C)cc2)c2c1C(C(F)(F)F)CN(c1ncc(C(=O)N(C)C)cn1)C2 (racemic) [Example 459] | bucket A
CC(C)n1nc(C(=O)NCc2ccc(NC(=O)N3CCN(C)CC3)cc2)c2c1C(C(F)(F)F)CN(c1ccc(C(=O)N(C)C)cn1)C2 (single isomer, unassigned) [Example 692] | bucket A
CCn1nc2c(c1C(=O)NCc1ccc(NC(=O)N(C)C)cc1)CN(c1ccc(C(=O)N(C)C)cn1)[C@H](C)[C@H]2C (stereo in doubt) | bucket C
CCn1nc(C(=O)NCc2ccc(C(=O)NC)cc2)c2c1[C@@H](C)CN(c1ncc(C(=O)N(C)C)cn1)C2 | bucket B
CC(C)n1nc(C(=O)NCc2ccc(NC(=O)N3CCN4CCC[C@@H]4C3)cc2)c2c1[C@@H](C)CN(c1ccc(C(=O)N(C)C)cn1)C2 | bucket A
CC(C)n1nc(C(=O)NCc2ccc(C(N)=O)cc2)c2c1[C@@H](C)CN(c1ccc(N3CCOC3=O)cn1)C2 | bucket B
CC(C)n1nc(C(=O)NCc2ccc(NC(=O)N3CCCN(C)CC3)cc2)c2c1[C@@H](C)CN(c1ccc(C(=O)N(C)C)cn1)C2 | bucket A
CC(C)n1nc(C(=O)NCc2ccc(NC(=O)N(C)C)cc2)c2c1CCN(c1ccc(C(=O)N3C[C@H]4C[C@@H](C3)O4)cn1)C2 | bucket C
CC(C)n1nc(C(=O)NCc2ccc(NC(=O)N(C)C)cc2)c2c1CCN(c1ccc(CC(N)=O)cn1)C2 | bucket C
CC(C)n1nc(C(=O)NCc2ccc(NC(=O)N3CC(C)(N(C)C)C3)c(F)c2)c2c1[C@@H](C)CN(c1ccc(C(=O)N(C)C)cc1)C2 | bucket B
CC(C)n1nc(C(=O)NCc2ccc(NC(=O)N3CCNCC3)cc2)c2c1C(C(F)(F)F)CN(c1ccc(C(=O)N(C)C)cc1)C2 (racemic) | bucket A
Cc1cnc2n1CCN(C(=O)c1ccc(N3CCc4c(c(C(=O)NCc5ccc(NC(=O)N(C)C)cc5)nn4C(C)C)C3)nc1)C2 | bucket B
